Origin of measurements: PubChem BioAssay AID1963864

- Test system: KRAS PDC multicell spheroid viability;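 also: drug exposure lasted seven days; 100% = DMSO vehicle wells and lower means fewer viable cells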
- ASSAY_DETAILS: Anticancer human tumor 521955-158-R6-J3-PDC patient-derived pancreatic carcinoma cell line growth inhibition [KRAS2]
- ASSAY_SETUP: second compound 0.1 µM; first compound 0.1 µM; hits give low values
VALUE_TYPE: viability, T/C (%)
Only the number, expressed in %, is required.

| COMPOUND | SYSTEM | viability, T/C [%] |
| --- | --- | --- |
| CC(C)n1nc(-c2ccc3oc(N)nc3c2)c2c(N)ncnc21 + C=CC(=O)N1CCN(c2nc(OCC3CCCN3C)nc3c2CCN(c2cccc4cccc(C)c24)C3)CC1CC#N | KRAS PDC multicell spheroid viability | 44.2 |
| O=C(c1cc(Cc2n[nH]c(=O)c3ccccc23)ccc1F)N1CCN(C(=O)C2CC2)CC1 + COc1cc2nc(C)nc(NC(C)c3cc(N)cc(C(F)(F)F)c3)c2cc1OC1CCOC1 | KRAS PDC multicell spheroid viability | 76.4 |
| CC1(C)CCC(CN2CCN(c3ccc(C(=O)NS(=O)(=O)c4ccc(NCC5CCOCC5)c([N+](=O)[O-])c4)c(Oc4cnc5[nH]ccc5c4)c3)CC2)=C(c2ccc(Cl)cc2)C1 + C=CC(=O)N1CCN(c2nc(=O)n(-c3c(C)ccnc3C(C)C)c3nc(-c4c(O)cccc4F)c(F)cc23)C(C)C1 | KRAS PDC multicell spheroid viability | 98.8 |
| COC(=O)c1ccc2c(C(=Nc3ccc(N(C)C(=O)CN4CCN(C)CC4)cc3)c3ccccc3)c(O)[nH]c2c1 + COc1cc2nc(C)nc(NC(C)c3cc(N)cc(C(F)(F)F)c3)c2cc1OC1CCOC1 | KRAS PDC multicell spheroid viability | 95.7 |

# next compound below
Consider the compound shown here: COC(=O)c1ccc2c(C(=Nc3ccc(N(C)C(=O)CN4CCN(C)CC4)cc3)c3ccccc3)c(O)[nH]c2c1 + CC1OCC2(CCN(c3cnc(Sc4ccnc(N)c4Cl)c(N)n3)CC2)C1N What is its recorded viability, T/C?
88.5
